- SYSTEM UNDER TEST: T1, cynomolgus monkey C2 (cynomolgus monkey, UniProt G8F3W0 21-752)
- T1 sequence: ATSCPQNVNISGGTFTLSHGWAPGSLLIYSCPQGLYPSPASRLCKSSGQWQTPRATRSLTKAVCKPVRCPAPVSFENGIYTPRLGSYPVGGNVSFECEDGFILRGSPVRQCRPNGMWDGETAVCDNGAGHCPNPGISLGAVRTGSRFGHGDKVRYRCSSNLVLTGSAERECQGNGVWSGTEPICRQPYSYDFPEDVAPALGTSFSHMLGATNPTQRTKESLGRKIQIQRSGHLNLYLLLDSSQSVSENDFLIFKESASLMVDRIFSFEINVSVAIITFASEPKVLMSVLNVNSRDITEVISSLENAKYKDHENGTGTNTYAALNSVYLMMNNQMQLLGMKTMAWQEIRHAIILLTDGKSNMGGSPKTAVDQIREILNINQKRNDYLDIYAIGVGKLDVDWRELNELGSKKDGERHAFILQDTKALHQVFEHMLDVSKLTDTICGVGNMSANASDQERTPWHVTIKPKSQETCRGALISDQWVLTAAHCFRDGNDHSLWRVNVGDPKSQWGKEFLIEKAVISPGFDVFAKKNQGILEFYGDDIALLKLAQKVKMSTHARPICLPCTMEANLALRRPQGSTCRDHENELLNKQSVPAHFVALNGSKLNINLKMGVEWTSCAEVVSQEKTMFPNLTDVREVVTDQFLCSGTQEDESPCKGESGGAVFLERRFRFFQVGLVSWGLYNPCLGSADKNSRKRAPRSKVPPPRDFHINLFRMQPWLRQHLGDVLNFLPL
- ASSAY SUMMARY: cell-based or functional assay
Recorded IC50, inhibition of cynomolgus lectin complement pathway (Wieslab assay), one value per entry.
Express your answer in nM, writing the number without its unit.

RF16-203G (antibody, V domains shown) VH: EVQLLESGGGLVQPGGSLRLSCAASGFTFSRYYMMWVRQAPGKGLEWVSSIGSSGGTTNYADSVKGRFTISRDNSKNTLYLQMNSLRAEDTAVYYCAKGGMVLGVVNIWGQGTLVTVSS VL: SYELTQPPSVSVSPGQTASITCSGDKLGEKYVSWYQQKPGQSPVLVIYQDIKRPSGIPERFSGSNSGNTATLTISGTQAMDEADYYCQTWGTGGIQVFGGGTKLTVLG : 5780
RF16-191 (antibody, V domains shown, Human antibody from a phage display library) VH: EVQLLESGGGLVQPGGSLRLSCAASGFTFSKYWMGWVRQATGKGLEWVSSIYSSGGWTYYADSVKGRFTISRDNSKNTLYLQMNSLRAEDTAVYYCARRPRSFSGSYYRAFDIWGQGTMVTVSS VL: DIQMTQSPSSLSASVGDRVTITCRASQSITDYLNWYQQRPGKAPKLLIYAASSLQSGVPSRFSGSGSGTDFTLTISGLQPEDFATYYCQQSYSSSITFGQGTRLDLKR : 49.2
RF16-242G (antibody, V domains shown, Germlined version of RF16-242) VH: EVQLVQSGAEVKKPGESLKISCKGSGYSFTSYWIGWVRQMPGKGLEWMGIIYPGDSDTRYSPSFQGQVTISADKSISTAYLQWSSLKASDTAMYYCARRGHYGDYFDYWGQGTLVTVSS VL: SYELTQPPSVSVSPGQTARITCSGDALPKKYAYWYQQKSGQAPVLVIYEDRRRPSGIPERFSGSSSGTMATLTISGAQVEDEADYYCYSRDRAGNQRVFGGGTQLTVLG : 275
RF16-214G (antibody, V domains shown) VH: EVQLLESGGGLVQPGGSLRLSCAASGFTFSWYQMMWVRQAPGKGLEWVSRIYPSGGGTAYADSVKGRFTISRDNSKNTLYLQMNSLRAEDTAVYYCARDAGYGDNWGQGTLVTVSS VL: SYELTQPPSVSVSPGQTASITCSGDKLGEKYASWYQQKPGQSPVLVIYQDRKRPSGIPERFSGSNSGNTATLTISGTQAMDEADYYCQAWDTRAVVFGGGTKLTVLG : 223
RF16-203 (antibody, V domains shown, Human antibody from a phage display library) VH: EVQLLESGGGLVQPGGSLRLSCAASGFTFSRYYMMWVRQAPGKGLEWVSSIGSSGGTTNYADSVKGRFTISRDNSKNTLYLQMNSLRAEDTATYYCAKGGMVLGVVNIWGQGTLVTVSS VL: QSALTQPPSVSVSPGQTATITCSGDKLGEKYVSWYQQKPGQSPVVVIFQDIKRPSGIPERFSGSNSGNTATLTISGTQAMDEADYYCQTWGTGGIQVFGGGTKLTVLR : 112

## Input Annotate the binder RF16-214 (antibody, V domains shown) VH: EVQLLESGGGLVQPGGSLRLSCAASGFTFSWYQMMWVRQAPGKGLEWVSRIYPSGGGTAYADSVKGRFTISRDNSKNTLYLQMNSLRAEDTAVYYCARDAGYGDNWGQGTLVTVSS VL: QSALTQPPSVSVSPGQTASITCSGDKLGEKYASWYQQKAGQSPVMVIYQDRKRPSGIPERFSGSNSGNTATLTISGTQAMDEADYYCQAWDTRAVVFGGGTKLTVLG with its measured IC50, inhibition of cynomolgus lectin complement pathway (Wieslab assay).
## Output 362

All values here come from patent US20220332804A1.
